target: Menin (Homo sapiens, UniProt O00255); test: Binding affinity to menin (unknown origin) after 60 mins by fluorescence polarization assay
pIC50: −log10 of the molar value. *1 amine or outer side, *2 acyl side, *3 side chain or, on linkers, in order; H or OH if unused. Where a SMILES comes first, the peptide text is derived from it. Bridges are numbered along the chain shown (N, C = ends). [ ]: non-standard residue; d: D form. hhhhLys = O=C([C@H](CCCCCCCCN[*:3])N[*:1])[*:2]; Phe(3-F) = N[C@@H](Cc1cccc(F)c1)C(=O)O; Phe(4-F) = N[C@@H](Cc1ccc(F)cc1)C(=O)O; Ahp(2) = CCCCC[C@H](N)C(=O)O; Ac4c = NC1(C(=O)O)CCC1; Ac3c = NC1(C(=O)O)CC1
quantity-name: pIC50

CCCCC[C@H](NC(=O)[C@H](Cc1c[nH]c2ccccc12)NC(=O)[C@H](CCCNC(=N)N)NC(C)=O)C(=O)N[C@@H](Cc1ccccc1)C(=O)N1CCC[C@H]1C(=O)N[C@@H](C)C(=O)N[C@@H](CCCNC(=N)N)C(=O)N1CCC[C@H]1C(=O)NCC (Ac-RW[Ahp(2)]FPARP-NHEt) | 5.13
N=C(N)NCCC[C@@H]1NC(=O)C2(CCC2)NC(=O)[C@@H]2CCCN2C(=O)[C@H](Cc2ccc(F)cc2)NC(=O)[C@@H](N)CCCCCCCCNC(=O)[C@@H]2CCCN2C1=O (H-[hhhhLys][Phe(4-F)]P[Ac4c]RP; lactam 1-C) | 6.37
N=C(N)NCCC[C@@H]1NC(=O)C2(CCC2)NC(=O)[C@@H]2CCCN2C(=O)[C@H](Cc2cccc(F)c2)NC(=O)[C@@H](N)CCCCCCCCNC(=O)[C@@H]2CCCN2C1=O (H-[hhhhLys][Phe(3-F)]P[Ac4c]RP; lactam 1-C) | 7.60
N=C(N)NCCC[C@@H]1NC(=O)C2(CC2)NC(=O)[C@@H]2CCCN2C(=O)[C@H](Cc2ccccc2)NC(=O)[C@@H](N)CCCCCCCCNC(=O)[C@@H]2CCCN2C1=O (H-[hhhhLys]FP[Ac3c]RP; lactam 1-C) | 6.71

* * *

biological target: Menin (Homo sapiens, UniProt O00255); experiment: Binding affinity to menin (unknown origin) after 60 mins by fluorescence polarization assay
Friendly reminder: Ki below 3000 nM is 1, at or above is 0.

Ac-RWRFPAR-NH2 | 0
Ac-RFPARP-NH2 | 1
Ac-WRFPARP-NH2 | 1
Ac-RWRFPARP-NH2 | 1
Ac-RWRFPARPGTGRR-NH2 | 1

* * *

Target: Menin (Homo sapiens, UniProt O00255)
Sequence (O00255 whole entry): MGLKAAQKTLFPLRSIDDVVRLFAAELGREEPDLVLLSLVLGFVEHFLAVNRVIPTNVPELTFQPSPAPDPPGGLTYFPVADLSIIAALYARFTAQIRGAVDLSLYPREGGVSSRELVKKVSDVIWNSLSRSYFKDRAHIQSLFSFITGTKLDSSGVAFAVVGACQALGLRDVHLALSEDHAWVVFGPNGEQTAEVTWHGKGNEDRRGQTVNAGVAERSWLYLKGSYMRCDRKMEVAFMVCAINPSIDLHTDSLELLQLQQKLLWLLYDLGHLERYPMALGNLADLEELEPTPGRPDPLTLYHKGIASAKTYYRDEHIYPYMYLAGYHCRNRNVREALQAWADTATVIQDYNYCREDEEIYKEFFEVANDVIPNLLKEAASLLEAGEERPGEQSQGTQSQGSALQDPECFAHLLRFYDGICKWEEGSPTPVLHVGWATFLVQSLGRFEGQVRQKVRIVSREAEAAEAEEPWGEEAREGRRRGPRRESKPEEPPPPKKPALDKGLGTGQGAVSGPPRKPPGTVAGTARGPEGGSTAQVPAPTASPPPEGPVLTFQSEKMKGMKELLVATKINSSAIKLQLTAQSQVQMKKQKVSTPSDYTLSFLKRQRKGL
*1 amine or outer side, *2 acyl side, *3 side chain or, on linkers, in order; H or OH if unused. Where a SMILES comes first, the peptide text is derived from it. Bridges are numbered along the chain shown (N, C = ends). [ ]: non-standard residue; d: D form. Phe(3-Ph) = N[C@@H](Cc1cccc(-c2ccccc2)c1)C(=O)O; hhhhLys = O=C([C@H](CCCCCCCCN[*:3])N[*:1])[*:2]; X2 = CC(C)Cc1cccc(C[C@H](N[*:1])C(=O)[*:2])c1; Phe(3-Cl) = N[C@@H](Cc1cccc(Cl)c1)C(=O)O; NH(CH2)9CO = O=C(CCCCCCCCCN[*:1])[*:2]; Phe(2-Cl) = N[C@@H](Cc1ccccc1Cl)C(=O)O; hLys = NCCCCC[C@H](N)C(=O)O; Abu = CC[C@H](N)C(=O)O; Ac4c = NC1(C(=O)O)CCC1
quantity-name: log10 of IC50 (log10 of the value in nM)

CC[C@@H]1NC(=O)[C@@H]2CCCN2C(=O)[C@H](Cc2ccccc2)NC(=O)[C@@H](N)CCCCCCCCNC(=O)[C@@H]2CCCN2C(=O)[C@H](CCCNC(=N)N)NC1=O (H-[hhhhLys]FP[Abu]RP; lactam 1-C) | 4.03
CC(C)Cc1cccc(C[C@@H]2NC(=O)[C@@H](N)CCCCCCCCNC(=O)[C@@H]3CCCN3C(=O)[C@H](CCCNC(=N)N)NC(=O)C3(CCC3)NC(=O)[C@@H]3CCCN3C2=O)c1 (H-[hhhhLys][X2]P[Ac4c]RP; lactam 1-C) | 4.56
C[C@@H]1NC(=O)[C@@H]2CCCN2C(=O)[C@H](Cc2ccccc2)NC(=O)[C@@H](N)CCCCCCCCNC(=O)[C@@H]2CCCN2C(=O)[C@H](CCCNC(=N)N)NC1=O (H-[hhhhLys]FPARP; lactam 1-C) | 2.82
CC(=O)N[C@@H](CCCNC(=N)N)C(=O)N[C@@H](Cc1c[nH]c2ccccc12)C(=O)N[C@H]1CCCCCCCCCNC(=O)[C@@H]2CCCN2C(=O)[C@H](CCCNC(=N)N)NC(=O)[C@H](C)NC(=O)[C@@H]2CCCN2C(=O)[C@H](Cc2ccccc2)NC1=O | 2.16
CC(=O)N[C@@H](CCCNC(=N)N)C(=O)N[C@@H](Cc1c[nH]c2ccccc12)C(=O)N[C@H]1CCCCCCCCNC(=O)[C@@H]2CCCN2C(=O)[C@H](CCCNC(=N)N)NC(=O)[C@H](C)NC(=O)[C@@H]2CCCN2C(=O)[C@H](Cc2ccccc2)NC1=O (Ac-RW[hhhhLys]FPARP; lactam 3-C) | 1.40
C[C@@H]1NC(=O)[C@@H]2CCCN2C(=O)[C@H](Cc2ccccc2)NC(=O)CCCCCCCCCNC(=O)[C@@H]2CCCN2C(=O)[C@H](CCCNC(=N)N)NC1=O (cyclo(ARP[NH(CH2)9CO]FP)) | 3.81
N=C(N)NCCC[C@@H]1NC(=O)C2(CCC2)NC(=O)[C@@H]2CCCN2C(=O)[C@H](Cc2cccc(Cl)c2)NC(=O)[C@@H](N)CCCCCCCCNC(=O)[C@@H]2CCCN2C1=O (H-[hhhhLys][Phe(3-Cl)]P[Ac4c]RP; lactam 1-C) | 2.20
N=C(N)NCCC[C@@H]1NC(=O)C2(CCC2)NC(=O)[C@@H]2CCCN2C(=O)[C@H](Cc2cccc(-c3ccccc3)c2)NC(=O)[C@@H](N)CCCCCCCCNC(=O)[C@@H]2CCCN2C1=O (H-[hhhhLys][Phe(3-Ph)]P[Ac4c]RP; lactam 1-C) | 4.60
CC(=O)N[C@@H](CCCNC(=N)N)C(=O)N[C@@H](Cc1c[nH]c2ccccc12)C(=O)N[C@H]1CCCCCNC(=O)[C@@H]2CCCN2C(=O)[C@H](CCCNC(=N)N)NC(=O)[C@H](C)NC(=O)[C@@H]2CCCN2C(=O)[C@H](Cc2ccccc2)NC1=O (Ac-RW[hLys]FPARP; lactam 3-C) | 2.71
N=C(N)NCCC[C@@H]1NC(=O)C2(CCC2)NC(=O)[C@@H]2CCCN2C(=O)[C@H](Cc2ccccc2Cl)NC(=O)[C@@H](N)CCCCCCCCNC(=O)[C@@H]2CCCN2C1=O (H-[hhhhLys][Phe(2-Cl)]P[Ac4c]RP; lactam 1-C) | 2.05
CC(=O)N[C@@H](CCCNC(=N)N)C(=O)N[C@@H](Cc1c[nH]c2ccccc12)C(=O)N[C@H]1CCCCNC(=O)[C@@H]2CCCN2C(=O)[C@H](CCCNC(=N)N)NC(=O)[C@H](C)NC(=O)[C@@H]2CCCN2C(=O)[C@H](Cc2ccccc2)NC1=O (Ac-RWKFPARP; lactam 3-C) | 4.04

Source: ChEMBL document CHEMBL2311406
